- target under test: Hexose transporter 1 (Plasmodium falciparum)
- assay text: ST_JUDE_LEISH: Cytotoxicity at 2uM final concentration against transgenic Leishmania Mexicana promastigotes LmPfHT that are glucose transport deficient and complemented with the Plasmodium falciparum hexose transporter. Activity is measured by DNA content using SYBR green in vitro
- Format: functional
Could you please report measured inhibition for the items listed next?
Numbers only, in %.

Example results:
>>> print(df.to_string())
                                   compound  measurement_type  assay_value
0  CS(=O)(=O)CCNc1cc(N2CCc3ncnc(Nc4ccc(OCc5cccc(F)c5)c(Cl)c4)c3C2)ncn1        inhibition         0.75
1  COc1ccc(CNCc2ccsc2)cc1-c1ccc(OC)c(S(=O)(=O)NCCN2CCCC2)c1        inhibition         1.92
2  Cc1ccc(C)c(Cn2c(N3CCC(C(=O)NCc4cccs4)CC3)nc3ccccc32)c1        inhibition          4.2
3  COc1ccc(Nc2nccc(NCCNC(=O)c3cc4ccccc4s3)n2)cc1        inhibition         3.59
4  CC(CN1CCN(C)CC1)C(=O)Nc1cccc(-c2cccc(-c3nc4ccccc4[nH]3)c2)c1 (stereo not given)        inhibition         4.44
5  CCN1C(=O)C(CC(=O)Nc2cccc(Cl)c2)N(Cc2ccc(OC)c(OC)c2)C1=S (stereo not given)        inhibition         4.35
6  Cc1cc(N2Cc3ccccc3C2)nc(Nc2ccc(S(=O)(=O)N3CCOCC3)cc2)n1        inhibition            2
7  NS(=O)(=O)c1ccccc1Nc1nc(Nc2ccc(N3CCOCC3)cc2)nc2c1CCC2        inhibition         4.49

Please report inhibition for every entry that follows.
1. CCCCCCSc1nnc(COc2cccc3ccccc23)n1-c1ccc(OC)cc1
2. Oc1ccc(-c2ccccc2)cc1CN1CCCCCC1

[12.1, 2.49]

====

Kindly supply the reported inhibition values for the records listed here.
- target under test: Solute carrier family 2, facilitated glucose transporter member 1 (Homo sapiens)
- assay text: ST_JUDE_LEISH: Cytotoxicity at 2uM final concentration against transgenic Leishmania Mexicana promastigotes LmGLUT1 that are glucose transport deficient and complemented with the human glucose transporter GLUT1. Activity is measured by DNA content using SYBR green in vitro
- Assay type: functional
Answers are plain numbers, in %.

Please review the following examples before continuing.
>>> print(df.to_string())
                                   molecule  measurement_type  assay_value
0  CCOc1ccc2c(=NN=Cc3cc(OC)c(OC)c(OC)c3)cc(C)[nH]c2c1        inhibition          2.5
1  CCc1ccc(-n2c(NC(=O)c3ccccc3)nc3ccc(S(=O)(=O)NC(C)C(C)C)cc32)cc1 (stereo not given)        inhibition        -1.74

Hi team, please reply with inhibition for each item in this list.
1. CCNc1cc(C)nc(Nc2ccc(NC(=O)c3cccs3)cc2)n1
2. CCOc1ccc2c(=NN=Cc3cccc(Cl)c3)cc(C)[nH]c2c1
3. O=C(Nc1cccc(F)c1)NC1CCN(c2ccnc3cc(Cl)ccc23)C1 (stereo not given)
4. CCOc1cc(NC(=O)Nc2ccnc3ccccc23)cc(OC)c1
5. CCNc1cc(C(=O)N[C@@H](Cc2ccccc2)[C@H](O)CN[C@@H](C)c2cccc(OC)c2)cc(N2CCCC2=O)c1

1: 4.59; 2: 8.03; 3: 2.72; 4: 12.6; 5: 3.36

Batch request: inhibition for each of the following molecules.
1. Cc1ccc(-n2cc(CNCCc3nc(C)c[nH]3)c(-c3ccc(F)cc3)n2)cc1
2. O=C(/C=C/c1ccc(Cl)c(Cl)c1)NC1CCC(CN2CCC(c3c[nH]c4ccncc34)CC2)CC1 (stereo not given)
3. O=C(/C=C/c1cccc(Cl)c1)N1CCC(C(O)CN2CCC3(CC2)CN(C(=O)/C=C/c2cccc(Cl)c2)c2ccccc23)CC1 (stereo not given)

1. 4.34
2. 0.22
3. 0.54
